- Experimental protocol: Maximum concentration soluble in polydimethylsiloxane (PDMS) when silicone oil was used
- Format: physicochemical
- Condition context: silicone oil used as in Example 2
- Text: A DFB laser was produced in the same manner as in Example 1, except that a silicone oil (KF-1065, produced by Shin-Etsu Chemical Co., Ltd.) was used instead of toluene, and that the step of removing toluene was not performed. Using the dyes indicated below, maximum concentrations at which they were soluble in polydimethylsiloxane (PDMS) were investigated in the same manners as in Examples 1 and 2.
Quantity kind: Behavior of dissolution in PDMS when silicone oil was used: State

The following compounds have reported results that may help.
CCC1=C(C)C2=C(C)c3c(C)c(CC)c(C)n3[B-](F)(F)[N+]2=C1C [PM567] | dissolved
CCN=c1cc2oc3cc(NCC)c(C)cc3c(-c3ccccc3C(=O)OCC)c-2cc1C.Cl [Rh6G] | lumpy→
CC1=C(C)C(C)=[N+]2C1=C(C#N)c1c(C)c(C)c(C)n1[B-]2(F)F [PM650] | dissolved
CCC1=C(C)C2=C(COC(C)=O)c3c(C)c(CC)c(C)n3[B-](F)(F)[N+]2=C1C [PM605] | dissolved
CCCCC1=C(C)C2=C(C)c3c(C)c(CCCC)c(C)n3[B-](F)(F)[N+]2=C1C [PM580] | lumpy→

*Q* Hello, please tell me recorded Behavior of dissolution in PDMS when silicone oil was used: State for this one: CC1=C(C(C)(C)C)C(C)=[N+]2C1=C(C)c1c(C)c(C(C)(C)C)c(C)n1[B-]2(F)F [PM597]
*A* dissolved
